Cited source: patent US20020103123A1

- STUDY_TARGET: human Y1 receptor (human, UniProt P25929)
- ASSAY_REMARKS: 125I-PYY displacement, COS-7 membranes
OBSERVABLE: Ki (nM)
Numbers only, in nM.

## Input Specify reported Ki for the binder shown: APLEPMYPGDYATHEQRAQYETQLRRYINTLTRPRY [rat PP]
## Output 450
